target: human TLR7 (wild type sequence) (Homo sapiens, UniProt Q9NYK1); construct: expressed in transfected cells; host or cells: HEK293; experiment: TLR7 cellular NFκB-luc reporter assay, wild type TLR7; assay type: cell-based; parameters: unit not given here; details: lowest effective concentration, wild type TLR7 (compounds 74 onward)
Sequence (Q9NYK1 27-1049): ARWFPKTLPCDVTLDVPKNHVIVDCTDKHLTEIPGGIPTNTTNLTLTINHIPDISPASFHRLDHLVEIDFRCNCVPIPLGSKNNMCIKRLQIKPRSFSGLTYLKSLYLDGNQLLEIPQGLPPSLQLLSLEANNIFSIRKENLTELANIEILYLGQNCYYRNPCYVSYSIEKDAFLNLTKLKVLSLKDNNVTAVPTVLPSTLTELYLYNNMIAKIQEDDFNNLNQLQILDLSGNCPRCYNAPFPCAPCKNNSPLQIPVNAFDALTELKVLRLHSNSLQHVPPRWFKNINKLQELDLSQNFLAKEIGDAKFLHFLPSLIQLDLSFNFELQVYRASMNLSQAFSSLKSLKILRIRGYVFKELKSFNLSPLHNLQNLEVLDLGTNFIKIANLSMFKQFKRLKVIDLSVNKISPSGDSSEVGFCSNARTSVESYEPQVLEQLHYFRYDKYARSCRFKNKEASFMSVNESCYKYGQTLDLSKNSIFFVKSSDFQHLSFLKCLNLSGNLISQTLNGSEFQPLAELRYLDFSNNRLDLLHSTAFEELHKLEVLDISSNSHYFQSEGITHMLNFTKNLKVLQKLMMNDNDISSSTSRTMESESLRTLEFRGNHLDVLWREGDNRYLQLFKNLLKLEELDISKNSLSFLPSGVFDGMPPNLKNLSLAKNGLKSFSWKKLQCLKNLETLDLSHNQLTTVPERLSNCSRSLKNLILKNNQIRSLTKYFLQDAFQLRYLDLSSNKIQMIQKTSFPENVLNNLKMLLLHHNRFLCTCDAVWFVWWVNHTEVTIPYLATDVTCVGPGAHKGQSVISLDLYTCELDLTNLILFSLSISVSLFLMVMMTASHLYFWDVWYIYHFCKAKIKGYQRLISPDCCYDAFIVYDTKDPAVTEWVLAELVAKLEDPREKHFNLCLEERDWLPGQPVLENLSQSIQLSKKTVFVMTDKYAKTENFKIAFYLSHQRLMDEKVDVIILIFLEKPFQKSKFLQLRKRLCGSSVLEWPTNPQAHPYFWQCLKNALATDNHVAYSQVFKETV
Define the label as True when TLR 7 wt LEC is strictly less than 0.7 and as False in all remaining cases.

Answered examples (3):
CCC[C@@H](CO)Nc1nc(N)ncc1OCc1ncc(C)c(OC)c1C [Compound 76] :: True
CCC[C@@H](CO)Nc1nc(N)ncc1OCCCc1ccccc1 [Compound 125] :: False
COc1cnc(N)nc1N[C@H](CO)CC(C)C [Compound 93] :: False

Incoming: Decide: TLR 7 wt LEC of CCCCNc1nc(N)ncc1OCc1cc2c(cn1)[nH]c1ccccc12 [Compound 159] strictly below 0.7?
Outgoing: True

Incoming: Decide: TLR 7 wt LEC of CCCCNc1nc(N)ncc1OCCOc1cc(OC)c(OC)c(OC)c1 [Compound 133] strictly below 0.7?
Outgoing: False

Incoming: Decide: TLR 7 wt LEC of CCCCCC(C)Nc1nc(N)ncc1OCc1ccc2ccccc2n1 (stereo not shown) [Compound 189] strictly below 0.7?
Outgoing: False
